Target: T1, human CD38 on transiently transfected Expi293 cells (Origene #SC321273) (human, UniProt P28907 1-300)
T1 construct: whole, on cells; also called Human (FACs)
Test: flow cytometry, transfected Expi293 cells;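 also: antibody binding to Expi293 cells transiently expressing human or murine CD38, antibodies applied at 10 ug/ml for 60 min on ice, read by flow cytometry as percent gated cells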
Collected FACs 10 ug/ml (percent gated) values appear next to each entry.

- Binder: "40596p1.A5 (scFv, V domains shown, tested as scFv-Fc supernatant) VH: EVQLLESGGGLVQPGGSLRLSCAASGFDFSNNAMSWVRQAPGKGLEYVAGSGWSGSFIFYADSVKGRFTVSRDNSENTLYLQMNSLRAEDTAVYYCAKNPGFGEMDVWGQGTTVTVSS VL: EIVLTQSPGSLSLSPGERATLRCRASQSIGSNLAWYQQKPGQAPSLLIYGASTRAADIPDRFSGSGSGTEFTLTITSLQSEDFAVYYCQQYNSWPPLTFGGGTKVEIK"
  Output unit: "%"
  FACs 10 ug/ml (percent gated): 72.8
- Binder: "40596p1.D2 (scFv, V domains shown, tested as scFv-Fc supernatant) VH: EVQLLESGGGLVQPGGSLRLSCAASGFDFSKNAMSWVRQAPGKGLEYVAGSGWSGSFIFYADSVKGRSTVSRDNSENTLYLQMSSLRAEDTAVYYCAKNPGFGEMDVWGQGTTVTVSS VL: ELVLTQSPGSLFLSPGERATLTCRASQTIGSNLAWYQQKFGQAPRLLIYGASTRAADIPDRFSGSGSGTEFTLTISSLQSEDFAVYYCQQYNSWPPLTFGGGTKVEIK"
  Output unit: "%"
  FACs 10 ug/ml (percent gated): 71.5
